test system: CAKI-1 renal; assay: NCI-60 one-dose screen, 48 h; settings: 10 µM unless noted
Compounds without any hit were thinned out: in the full panel of roughly 83,000, 20% have a hit. The source made the active and inactive calls. Rule for the calls: active = growth percent below 10; inactive = the rest.
Parameter call: string, one of y = active, n = inactive

Given Nc1nc2c(c3ncccc13)C(c1cccc(Cl)c1)Cc1ncccc1-2 (stereo not given) , state the outcome it received in this test. n

Check "COc1ccc2c(c1)c(-c1nc(-c3c[nH]c4ncccc34)cs1)cn2CCCN1CCOCC1" too. n

Check "NS(=O)(=O)c1ccc(NC(=O)/C(=C\c2ccc(Cl)cc2Cl)NC(=O)c2ccccc2)cc1" too. n

Check "O=C(Oc1ccc(CCl)cc1)c1ccccc1" too. y

Check "N[C@H]1CCC[C@@H]1NCCCCN1C(=O)c2cccc3cc([N+](=O)[O-])cc(c23)C1=O" too. n

Check "COc1ccc(N2CCC(=S)NC2=S)cc1" too. n

Check "O=S(=O)(Nc1cc(Sc2cccc3cccnc23)c(O)c2ccccc12)c1ccccc1" too. n

Check "O=C(Nc1ccc(Cl)cc1)Oc1c(Cl)c(Cl)c(Cl)c(Cl)c1Cl" too. n

Check "CS(=O)(=O)Nc1cc(-c2ccc3ncc(C#N)c(Nc4ccc(F)c(Cl)c4)c3c2)cnc1Cl" too. y

Check "COc1cc(/C=C/C(=O)c2ccc(-n3cc(CN4CCN(c5cc6c(cc5F)c(=O)c(C(=O)O)cn6C5CC5)CC4)nn3)cc2)ccc1O" too. n

Check "CCSc1oc(C)nc1[P+](c1ccccc1)(c1ccccc1)c1ccccc1" too. n

Check "COc1cccc(-c2cc(-c3cccc(Cl)c3)c(C#N)c(=O)[nH]2)c1" too. n

Check "CN(C)c1ccc(-c2ccc3c(c2)c(-c2ccccc2)nc(=O)n3C)cn1" too. n

Check "C/C(=N\O)c1ccc(NC(=O)CSc2nnc(-c3cc(-c4ccc(S(N)(=O)=O)cc4)nc4ccccc34)n2-c2ccccc2)cc1" too. n

Check "CC1(C)N=C(N)N=C(N)N1c1cccc(CCc2ccccc2)c1" too. n

Check "O=C(N/N=C/c1cc(Cl)ccc1O)c1ccccc1Nc1ccnc(C(F)(F)F)c1" too. n

Check CCN1C(=O)N(CC)C2C1NN=c1s/c(=C\c3cnc(C)n3C)c(=O)n12 (stereo not given) too. n

Check "CCCCCCCCCCCCCOC(=O)c1c(C)[nH]c(/C=C2\N=C(c3ccc[nH]3)C=C2OC)c1C" too. y

Check "COc1ccc2[nH]cc(-c3nc(-c4c[nH]c5c(Cl)nccc45)cs3)c2c1" too. n

Check "COc1ccc(-c2nc(-c3cn(C)c4ncccc34)cs2)cc1" too. y

----------
test system: SN12C renal; assay: NCI-60 one-dose screen, 48 h; settings: 10 µM unless noted
Compounds without any hit were thinned out: in the full panel of roughly 83,000, 20% have a hit. Calls of active or inactive are those of the source. The calls were made as follows: active = growth percent below 10; inactive = the rest.
Parameter call: string, one of yes (active), no (inactive)

Given N#Cc1cccc(C2C3=C(COC3=O)N(CCO)c3cc4c(cc32)OCO4)c1 (stereo unspecified) , state the outcome it received in this test. no

Check "COC(=O)c1c2c(n3ccccc13)C(=O)c1ccccc1C2=O" too. no

Check "CCOC(=O)c1ccccc1-c1c2ccc(=[N+](C)C)cc-2oc2cc(N(C)C)ccc12" too. yes

Check CC1C(/C=N/NC(N)=S)C(C#N)(C#N)C1(C#N)C#N (stereo unspecified) too. no

Check "C=C(C)[C@@H]1CC[C@]2(C(=O)N3CCN(C)CC3)CC[C@]3(C)[C@H](CC[C@@H]4[C@@]5(C)CC[C@H](OC(=O)c6ccccc6C(=O)O)C(C)(C)[C@@H]5CC[C@]43C)[C@@H]12" too. no

Check "CC(C)(C)n1cc(-c2ccnc(NCCCNS(=O)(=O)c3ccc(C(F)(F)F)cc3)c2)c(-c2cccc(F)c2)n1" too. no

Check "CC1(C)[C@@H](O[C@@H]2OC[C@@H](O[C@@H]3O[C@H](CO)[C@@H](O)[C@H](O)[C@H]3O[C@@H]3OC[C@@H](O)[C@H](O)[C@H]3O)[C@H](O)[C@H]2O[C@@H]2O[C@H](CO)[C@@H](O)[C@H](O)[C@H]2O)CC[C@]2(C)[C@H]3CC[C@]45OC[C@@]6(CC[C@](C)(C=O)C[C@H]64)[C@H](O)C[C@@]5(C)[C@]3(C)CC[C@@H]12" too. yes

Check "NS(=O)(=O)c1ccc(C(=O)NN2C(=O)c3c(Br)c(Br)c(Br)c(Br)c3C2=O)cc1" too. no

Check "COc1ccc(C(=O)Cn2c(C(=O)c3ccc(OC)cc3)nc3ccccc32)cc1" too. no

Check "C=C1C(=O)O[C@H]2[C@H]1CC/C(COC(=O)NCc1ccc(Cn3c(=O)sn(-c4ccc(C#N)cc4)c3=O)cc1)=C\CC[C@@]1(C)O[C@@H]21" too. no

Check "CN(C)CCCNC(=O)c1cncnc1Nc1ccc(OCc2cccc(F)c2)c(Cl)c1" too. no

Check "O=S(=O)(NCCNc1nccc(-c2c(-c3cccc(O)c3)nc3occn23)n1)c1ccc(Br)cc1" too. no

Check "COc1ccc(C(=O)/C=C/c2ccc(N3CCCCC3)cc2)cc1OC" too. no

Check "O=S(=O)(NCCNc1nccc(-c2c(-c3ccc(F)c(O)c3)nc3sccn23)n1)c1ccc(F)cc1" too. no

Check "COc1cccc(/C=C/C(=O)c2cccc(Nc3nc(Nc4ccccc4)nc(Nc4ccccc4)n3)c2)c1" too. no

Check "C=CC(=O)Nc1ccc(Nc2nccc(-c3ccc(N4CCCC4)c(C#N)c3)n2)cc1" too. no

Check C#CC#CC#CC#CC#CC#CC#CC#CCC1OC[C@H](COC(=O)O[C@@H](C(=O)O[C@H]2C[C@@]3(O)[C@@H](OC(=O)c4ccccc4)[C@@H]4[C@]5(OC(C)=O)CO[C@@H]5C[C@H](O)[C@@]4(C)C(=O)[C@H](OC(C)=O)C(=C2C)C3(C)C)[C@@H](NC(=O)c2ccccc2)c2ccccc2)O1 (stereo partly specified) too. no

Check "[2H]C([2H])([2H])Oc1ccc(F)cc1/C=C/C(=O)/C=C(/C=C/c1cc(F)ccc1OC([2H])([2H])[2H])OB(F)F" too. no

Check Cc1nc2c(c(=O)[nH]1)C(c1ccccc1)c1ccc3ccccc3c1O2 (stereo unspecified) too. no

Check "CC/C=C\C[C@H](O)C/C=C1/C(=O)C=C[C@@H]1C/C=C\CCCC(=O)O" too. no

Check "CC(=O)Oc1ccc(OC(C)=O)c2ccccc12" too. no

Check "N#Cc1nc(-c2ccccc2)oc1S(=O)(=O)N1CCN(c2ccc(F)cc2)CC1" too. no

Check "O=C1C(Nc2ccccn2)=C(I)C(=O)c2ncccc21" too. yes

Check "CC(=O)/C(=C/c1ccc([N+](=O)[O-])cc1)C(=O)c1ccccc1" too. no

Check "O=C(Nc1cc(Cl)ccc1O)c1cccc(Nc2ccnc(C(F)(F)F)c2)c1" too. no

Check "COC(=O)CC[C@@H]1O[C@@H](c2ccc(F)cc2)[C@@H](O)[C@H]1O" too. no

Check "CN1C(=O)/C(=C2\SC(=Nc3ccccc3)N(Nc3ccccc3)C2=O)c2ccccc21" too. no

Check O=C(C1CCCCC1)[C@@H]1[C@]2(C(=O)NC3CCCCC32)[C@@H]2CCCN2[C@@]12C(=O)NC1CCC(Cl)CC12 (stereo partly specified) too. yes

Check "COc1cc(-c2nc3cc(Cl)c(Cl)cc3[nH]2)ccc1OCC(=O)N=Nc1c(O)[nH]c2ccc(Cl)cc12" too. yes

Check "C=C(C)[C@@H]1CC[C@]2(C(N)=O)CC[C@]3(C)[C@H](CC[C@@H]4[C@@]5(C)CC[C@H](OCCC#N)C(C)(C)[C@@H]5CC[C@]43C)[C@@H]12" too. no

Check "CC1(C)CC(=O)c2c(nn(-c3ccc(Br)cc3)c2-c2cn(-c3ccccc3)nc2-c2cccnc2)C1" too. no

----------
Could you please report measured growth for the items listed next?
system: HCT-116 colon; experiment: NCI-60 one-dose screen, 48 h (100 = growth as untreated, 0 = no growth, -100 = all killed); conditions: 10 µM unless noted
This is part of a sample that, as a whole, favours compounds with a hit. Of some 83,000 tested, about 20% had one in any assay.
Answer with a number only, understood to be in %.

What does the data say about its growth? Entry: CCOC(=O)CC1CSC(Nc2ccccc2)=N1 (stereo not given) 107

Check "COc1ccccc1N(C(C)=O)C1=C(Cl)C(=O)c2ccccc2C1=O" too. -29.1

Check Nc1nc(N)c2c(n1)NC(c1cccc(Nc3ccnc4cc(C(F)(F)F)ccc34)c1)CC(c1ccccc1)=N2 (stereo not given) too. 21

Check "C=CC(=O)Nc1ccc(Nc2nccc(-c3ccc(N4CCCC4)c(C#N)c3)n2)cc1" too. 24.8

Check "CCN(CC)CCN1C(=O)c2c(c(C)c3c(oc4ccc(O)cc43)c2C)C1=O" too. -62.6

Check Nc1nc(N)c2c(n1)NC(c1ccc(Cl)cc1)C1CCc3ccccc3C1=N2 (stereo not given) too. 31.8

Check CC1=CC(c2ccco2)=C2C(N)=NNC2N1 (stereo not given) too. 100

Check C=CCOC(=O)C1=C(C)N(CC)C(=O)NC1c1c(Cl)n(C)c2ccccc12 (stereo not given) too. 90

Check "O=C(CN1CCCCCC1)Nc1nc2ccc(NCc3ccc(Cl)cc3)cc2s1" too. 75.8

Check CCN1C(=O)N(CC)C2C1NN=c1s/c(=C3\C(=O)N(CCC(C)C)c4ccccc43)c(=O)n12 (stereo not given) too. 10.6

Check "C#CCO[C@H]1CC(CC#C)(CC#C)C(=O)[C@@H]2[C@H]1[C@H]1C[C@@H]3[C@@]4(C)CCC[C@@](C)(C(=O)OC)[C@@H]4CC[C@@]23C=C1C(C)C" too. 96.1

Check "Cc1ccc(/C=C(\C#N)n2nnc3cc(F)c(F)cc32)cc1" too. -76.6

Check "Cc1cccc(Oc2ccc(Nc3ncnc4ccc(NC(=O)CN5CCN(C)CC5)cc34)cc2Cl)c1" too. 12.3

Check "Cc1ccc(Cl)cc1NC(=O)c1sc2nc3c(cc2c1N)C(=O)CCC3" too. 68

Check N#Cc1ccc(O)c(C2=NCC(Cc3ccccc3)O2)c1 (stereo not given) too. 14.9

Check "COc1ccc(C(=O)/C=C/c2ccc(N3CCCCC3)cc2)cc1OC" too. 82.7

Check "CC/C=C\CCC/C=C1/C(=O)C=C[C@@H]1C/C=C\CCCC(=O)OC" too. -52.4

Check COc1ccc(C(O)c2cc3c(N)c(C(=O)Nc4cccc(Cl)c4C)sc3nc2C)cc1 (stereo not given) too. 6.73

Check "COc1cccc(/C=N/NC(=O)c2ccccc2N2CCCC2)c1O" too. 4.81

Check "S=c1nc2oc(-c3ccccc3)c(-c3ccccc3)c2c(/N=C\c2ccco2)[nH]1" too. 84.4

Check "CN(CCCNC(=O)CCOCCOCCOCCNC(=O)Cc1ccc2ccc3cccc4ccc1c2c34)CCCNc1cc(-c2ccc3ccccc3c2)nc2ccccc12" too. -98.2

Check "COc1ccc(C(=O)c2cc3c(N)c(C(=O)Nc4ccccc4)sc3nc2C)cc1" too. 13.4

Check CCCCCN(CCCCC)CC(O)c1cc(C)c2ccc3cc(C(C)C)ccc3c2c1 (stereo not given) too. -84.8

Check "N#C/C(=C\c1ccc(-c2cccc(C(F)(F)F)c2)o1)c1ccccc1" too. 80.4

Check "CCN(CC)c1ccc(/C=N/NC(=O)Cc2ccc(Nc3ccnc(C(F)(F)F)c3)cc2)c(O)c1" too. 19.6

Check "CCCCCCCCCCCCCCCCCCOc1ccccc1CC(=O)NCC[N+]1(C)CCCCC1" too. 57.4

Check "Cc1c(CN)cc(-c2ccc(Cl)cc2)n1-c1ccccc1" too. 67.3

Check "N#CSc1c[nH]c2cccc(/C=C/C(=O)/C=C(O)/C=C/c3cccc4[nH]cc(SC#N)c34)c12" too. -92

Check "Cc1ccc(C=C2C(=O)NC(=O)NC2=O)cc1" too. 108

Check "Cc1ccc(NC(=O)Cn2c(Br)nc3c2c(=O)n(C)c(=O)n3C)cc1" too. -21.5

Check "O=C(O)[C@@H](Cc1ccc2ccccc2c1)NC(=O)n1c2ccccc2c2ccccc21" too. 9.76

Check "CNC(=O)c1cc(Oc2cccc3nc(NC(=O)Nc4cc(C(F)(F)F)ccc4Cl)ccc23)ccn1" too. 60.1

Check "CC1(C)N=C(N)N=C(N)N1c1cccc(CCc2ccccc2)c1" too. 19.8

Check "COC(=O)c1c2c(c(C)[n+]([O-])c1C)C(=O)C(NCc1cccc(Cl)c1)=CC2=O" too. 1.18

Check "C=CC(=O)Nc1ccc(Oc2nccc(Nc3nnc(-c4ccc(C)cc4)s3)n2)cc1" too. 94.9

Check "CN1CCN(Cc2ccc(NC(=O)c3cncc(C#Cc4cnc(N)c5ccc(F)cc45)c3)cc2C(F)(F)F)CC1" too. -90.9

Check "O=C(CC(=O)Nc1cccc(C(=O)O)c1)Nc1cccc(C(=O)O)c1" too. 94.3

Check "CCN(CC)c1ccc(CNc2cc(C)nc3ccccc23)cc1" too. 52.1

Check "CCNC(=O)Oc1ccc(/C(=C(/C)Cc2ccc(OC)cc2)c2ccc(OCCN3CCCCC3)cc2)cc1" too. 49.2

Check "O=C(CCCCCCN1CC(=O)N2[C@H](c3ccc(Br)cc3)c3[nH]c4ccccc4c3C[C@@H]2C1=O)NO" too. 14.8
